Assay: Single-dose pharmacokinetics of Compound I, intravenous 30-minute infusion in Cynomologus monkeys (Example 5)
Assay type: in vivo
Settings: cynomolgus, in vivo, Monkey, 20 mg/kg IV
reported.endpoint: half-life (h)

molecular.string	units.text	readout.value
O=C(O)C[C@@H]1CC[C@H](NC(=O)Cc2cccs2)B(O)O1	h	1.89

----------
Assay: Single-dose pharmacokinetics of Compound I, intravenous 30-minute infusion in Cynomologus monkeys (Example 5)
Format: in vivo
Details: in vivo, Monkey, 6 mg/kg IV

molecular.string	AUC
O=C(O)C[C@@H]1CC[C@H](NC(=O)Cc2cccs2)B(O)O1	12200 ng·h/mL

----------
Assay: Single-dose pharmacokinetics of Compound I, intraperitoneal administration to Swiss-Webster mice (Example 5)
Assay type: in vivo
Conditions: plasma, Mouse, 5 mg/kg IP
reported.endpoint: Cmax

molecular.string	readout.value
O=C(O)C[C@@H]1CC[C@H](NC(=O)Cc2cccs2)B(O)O1	8260 ng/mL

----------
Assay: Plasma pharmacokinetics of Compound I after single intraperitoneal dose in Swiss-Webster mice (Example 1)
Format: in vivo
Conditions: female, CFW (Swiss-Webster), mouse, ip; Swiss-Webster mice, plasma, 15 mg/kg intraperitoneal

molecular.string	units.text	Cmax
O=C(O)C[C@@H]1CC[C@H](NC(=O)Cc2cccs2)B(O)O1	ng/mL	19500

----------
Experiment: Plasma pharmacokinetics of Compound I after single intraperitoneal dose in Swiss-Webster mice (Example 1)
Assay type: in vivo
Conditions: female, CFW (Swiss-Webster), mouse, ip; Swiss-Webster mice, plasma, 15 mg/kg intraperitoneal
reported.endpoint: half-life (min)

molecule	readout.value
O=C(O)C[C@@H]1CC[C@H](NC(=O)Cc2cccs2)B(O)O1 [Compound I]	12

----------
Test: Plasma pharmacokinetics of Compound I and Biapenem alone or in combination after 1.5 hour intravenous infusion in Sprague-Dawley rats (Example 3)
Assay type: in vivo
Settings: male, Sprague-Dawley, rat, plasma, iv, 20 mg/kg, Sprague-Dawley rats, 1.5 hour intravenous infusion, 20 mg/kg Compound I in combination with 20 mg/kg Biapenem
# AUC listing for each entry below

compound	AUC
C[C@@H](O)[C@H]1C(=O)N2C(C(=O)[O-])=C(SC3Cn4cnc[n+]4C3)[C@H](C)[C@H]12 (some centres unmarked)	10100 ng·h/mL
O=C(O)C[C@@H]1CC[C@H](NC(=O)Cc2cccs2)B(O)O1	10400 ng·h/mL

----------
Experiment: Plasma pharmacokinetics of Compound I after single intraperitoneal dose in Swiss-Webster mice (Example 1)
Format: in vivo
Details: female, CFW (Swiss-Webster), mouse, ip; Swiss-Webster mice, plasma, 5 mg/kg intraperitoneal
reported.endpoint: half-life (min)

molecular.string	readout.value
O=C(O)C[C@@H]1CC[C@H](NC(=O)Cc2cccs2)B(O)O1	9.6

----------
Assay: Single-dose pharmacokinetics of Compound I, intravenous 30-minute infusion in Sprague-Dawley rats (Example 5)
Format: in vivo
Details: Sprague-Dawley, in vivo, Rat, 20 mg/kg IV
reported.endpoint: AUC (ng·h/mL)

molecular.string	readout.value
O=C(O)C[C@@H]1CC[C@H](NC(=O)Cc2cccs2)B(O)O1	12200

----------
Assay: Single-dose pharmacokinetics of Compound I, intravenous 30-minute infusion in Beagle dogs (Example 5)
Type: in vivo
Details: Beagle, in vivo, Dog, 20 mg/kg IV
Experimental: Example 5 provides the single-dose pharmacokinetic studies of Compound I inpreclinical species, including intraperitoneal administration to Swiss-Webster mice and intravaneous administration to Sprague-Dawley rats, Beagle dogs, and Cynomologus monkeys. Intravaneous doses of Compound I were administered as 30-minute infusions. […] Compound I concentrations were determined using an LC-MS detection method.

molecular.string	units.text	half-life
O=C(O)C[C@@H]1CC[C@H](NC(=O)Cc2cccs2)B(O)O1	h	1.53

----------
Assay: Plasma pharmacokinetics of Compound I after single intraperitoneal dose in Swiss-Webster mice (Example 1)
Type: in vivo
Conditions: female, CFW (Swiss-Webster), mouse, plasma, ip, 15 mg/kg, mouse plasma, 15 mg/kg intraperitoneal, samples m.p. 10.x = 10th time point (4.0 h), individual animals; read-out: Calc. Conc. (plasma concentration)

compound	concentration at 4 h
O=C(O)C[C@@H]1CC[C@H](NC(=O)Cc2cccs2)B(O)O1 [Compound I]	< 0 ng/mL

----------
Assay: Single-dose pharmacokinetics of Compound I, intraperitoneal administration to Swiss-Webster mice (Example 5)
Assay type: in vivo
Details: plasma, Mouse, 15 mg/kg IP
reported.endpoint: AUC (ng·h/mL)

molecular.string	readout.value
O=C(O)C[C@@H]1CC[C@H](NC(=O)Cc2cccs2)B(O)O1	8300

----------
Test: Plasma pharmacokinetics of Compound I and Biapenem alone or in combination after 1.5 hour intravenous infusion in Sprague-Dawley rats (Example 3)
Format: in vivo
Settings: male, Sprague-Dawley, rat, plasma, iv, 20 mg/kg, Sprague-Dawley rats, 1.5 hour intravenous infusion, administered alone
# clearance listing for each entry below

molecule	units.text	clearance
C[C@@H](O)[C@H]1C(=O)N2C(C(=O)[O-])=C(SC3Cn4cnc[n+]4C3)[C@H](C)[C@H]12 (some centres unmarked)	mL/min/kg	38.2
O=C(O)C[C@@H]1CC[C@H](NC(=O)Cc2cccs2)B(O)O1	mL/min/kg	33

----------
Experiment: Single-dose pharmacokinetics of Compound I, intravenous 30-minute infusion in Sprague-Dawley rats (Example 5)
Format: in vivo
Conditions: Sprague-Dawley, in vivo, Rat, 50 mg/kg IV

molecular.string	units.text	half-life
O=C(O)C[C@@H]1CC[C@H](NC(=O)Cc2cccs2)B(O)O1	h	4.5

----------
Experiment: in vivo
Parameters: species or system Swiss-Webster mice
Settings: female, CFW (Swiss-Webster), mouse, ip, 100 mg/kg, Calc. Conc. (plasma concentration)
reported.endpoint: concentration at 4 h (ng/mL)

molecule	reported.endpoint	readout.value
C[C@@H](O)[C@H]1C(=O)N2C(C(=O)[O-])=C(SC3Cn4cnc[n+]4C3)[C@H](C)[C@H]12 (stereo partly shown)	concentration at 4 h	10.2

----------
Assay: Plasma pharmacokinetics of Compound I after single intraperitoneal dose in Swiss-Webster mice (Example 1)
Assay type: in vivo
Details: female, CFW (Swiss-Webster), mouse, plasma, ip, 50 mg/kg, mouse plasma, 50 mg/kg intraperitoneal, samples m.p. 9.x = 9th time point (3.0 h), individual animals; read-out: Calc. Conc. (plasma concentration)
reported.endpoint: concentration at 3 h (ng/mL)

molecular.string	reported.endpoint	readout.value
O=C(O)C[C@@H]1CC[C@H](NC(=O)Cc2cccs2)B(O)O1	concentration at 3 h	181

----------
Assay: Single-dose pharmacokinetics of Compound I, intravenous 30-minute infusion in Beagle dogs (Example 5)
Assay type: in vivo
Conditions: Beagle, in vivo, Dog, 6 mg/kg IV

molecular.string	units.text	half-life
O=C(O)C[C@@H]1CC[C@H](NC(=O)Cc2cccs2)B(O)O1	min	42.6

----------
Assay: Single-dose pharmacokinetics of Compound I, intraperitoneal administration to Swiss-Webster mice (Example 5)
Type: in vivo
Settings: plasma, Mouse, 50 mg/kg IP, read-out: CL or CL/F (converted)
reported.endpoint: CL/F (mL/min/kg)

molecular.string	units.text	readout.value
O=C(O)C[C@@H]1CC[C@H](NC(=O)Cc2cccs2)B(O)O1	mL/min/kg	26.7

----------
Test: Single-dose pharmacokinetics of Compound I, intravenous 30-minute infusion in Sprague-Dawley rats (Example 5)
Assay type: in vivo
Details: Sprague-Dawley, in vivo, Rat, 50 mg/kg IV

molecular.string	Cmax (ng/mL)
O=C(O)C[C@@H]1CC[C@H](NC(=O)Cc2cccs2)B(O)O1	45900

----------
Assay: Single-dose pharmacokinetics of Compound I, intraperitoneal administration to Swiss-Webster mice (Example 5)
Format: in vivo
Details: plasma, Mouse, 15 mg/kg IP, read-out: CL or CL/F (converted)

molecular.string	CL/F, mL/min/kg
O=C(O)C[C@@H]1CC[C@H](NC(=O)Cc2cccs2)B(O)O1	30

----------
Assay: Single-dose pharmacokinetics of Compound I, intravenous 30-minute infusion in Cynomologus monkeys (Example 5)
Assay type: in vivo
Conditions: in vivo, Monkey, 2 mg/kg IV

molecular.string	Cmax [ng/mL]
O=C(O)C[C@@H]1CC[C@H](NC(=O)Cc2cccs2)B(O)O1	5350

----------
Assay: Single-dose pharmacokinetics of Compound I, intraperitoneal administration to Swiss-Webster mice (Example 5)
Format: in vivo
Settings: plasma, Mouse, 5 mg/kg IP, read-out: CL or CL/F (converted)

molecular.string	CL/F, mL/min/kg
O=C(O)C[C@@H]1CC[C@H](NC(=O)Cc2cccs2)B(O)O1	26.8

----------
Experiment: Single-dose pharmacokinetics of Compound I, intravenous 30-minute infusion in Beagle dogs (Example 5)
Type: in vivo
Conditions: Beagle, in vivo, Dog, 20 mg/kg IV

molecular.string	Cmax
O=C(O)C[C@@H]1CC[C@H](NC(=O)Cc2cccs2)B(O)O1	66.8 µg/mL

----------
Experiment: Plasma pharmacokinetics of Compound I after single intraperitoneal dose in Swiss-Webster mice (Example 1)
Type: in vivo
Settings: Swiss-Webster mice, plasma, 15 mg/kg intraperitoneal

molecular.string	units.text	AUC
O=C(O)C[C@@H]1CC[C@H](NC(=O)Cc2cccs2)B(O)O1	ng·h/mL	8300

Data origin: patent US11007206B2
